// data source = ChEMBL document CHEMBL4428102

Target: Gonadotropin-releasing hormone receptor (Homo sapiens, UniProt P30968)
Sequence (P30968 whole entry): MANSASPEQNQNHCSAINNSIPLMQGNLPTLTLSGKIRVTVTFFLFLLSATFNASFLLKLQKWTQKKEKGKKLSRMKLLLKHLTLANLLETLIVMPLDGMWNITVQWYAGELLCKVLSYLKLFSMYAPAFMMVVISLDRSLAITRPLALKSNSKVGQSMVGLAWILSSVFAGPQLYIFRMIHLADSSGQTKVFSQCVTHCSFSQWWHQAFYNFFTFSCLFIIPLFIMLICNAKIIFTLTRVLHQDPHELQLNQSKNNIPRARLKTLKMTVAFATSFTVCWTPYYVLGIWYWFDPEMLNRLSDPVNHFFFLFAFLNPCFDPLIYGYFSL
Assay: Antagonist activity against human GnRH receptor expressed in HEK293 cells co-transfected with pGL4-NFAT promoter AP1-luc assessed as inhibition of 20 nM GnRH-induced NFAT activation pre-incubated for 1 hr before GnRH stimulation and measured after 6 hrs by luciferase reporter gene assay
Assay type: cell-based
Assignment: determine reported IC50 for the given compounds.
Value expressed in µM; do not type the unit.

Ask: # IC50 lookup, item "Cc1c(N2CCN(Cc3cccc(C(=O)NCCCC(=O)O)c3)CC2)c(=O)n(C[C@H](N)c2ccccc2)c(=O)n1Cc1c(F)cccc1C(F)(F)F"
Reply: 0.376

Ask: Name the recorded IC50 for "Cc1c(N2CCN(Cc3ccc(=O)[nH]c3)CC2)c(=O)n(C[C@H](N)c2ccccc2)c(=O)n1Cc1c(F)cccc1C(F)(F)F" .
Reply: 1.09

Ask: Report IC50 for "COC(=O)c1cccc(CN2CCN(c3c(C)n(Cc4c(F)cccc4C(F)(F)F)c(=O)n(C[C@H](N)c4ccccc4)c3=O)CC2)c1" please.
Reply: 0.0233

Ask: Entry under review: "Cc1c(N2CCN(Cc3ccc(Cl)nc3)CC2)c(=O)n(C[C@H](N)c2ccccc2)c(=O)n1Cc1c(F)cccc1C(F)(F)F" . Reported IC50?
Reply: 0.554

Ask: Would you kindly share the measured IC50 for "Cc1c(N2CCN(Cc3cccc(C(N)=O)c3)CC2)c(=O)n(C[C@H](N)c2ccccc2)c(=O)n1Cc1c(F)cccc1C(F)(F)F" ?
Reply: 0.0865

Ask: Any idea what IC50 was measured for "Cc1c(N2CCN(Cc3ccc(C(F)(F)F)o3)CC2)c(=O)n(C[C@H](NCCCC(=O)O)c2ccccc2)c(=O)n1Cc1c(F)cccc1C(F)(F)F" ?
Reply: 0.013

---

Target: UniProtKB P30968
Sequence (P30968 whole entry): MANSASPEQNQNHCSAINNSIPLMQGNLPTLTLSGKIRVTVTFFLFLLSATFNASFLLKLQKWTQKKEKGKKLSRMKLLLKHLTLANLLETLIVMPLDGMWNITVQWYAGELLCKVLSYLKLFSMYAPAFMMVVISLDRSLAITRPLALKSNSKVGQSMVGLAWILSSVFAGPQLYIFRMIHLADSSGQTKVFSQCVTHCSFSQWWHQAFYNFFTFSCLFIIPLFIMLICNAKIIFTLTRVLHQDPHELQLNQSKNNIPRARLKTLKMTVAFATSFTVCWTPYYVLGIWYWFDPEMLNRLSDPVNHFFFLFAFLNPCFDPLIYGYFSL
Test: Antagonist activity against human GnRH receptor expressed in HEK293 cells assessed as reduction in ERK1/2 phosphorylation pre-incubated for 5 mins before LHRH stimulation for 5 mins by chemiluminescence based assay
Assay type: cell-based
Readout Label: pIC50
Schema: pIC50 number; meaning minus log10 of the concentration expressed in molar units.

Ask: # returns recorded pIC50 (system: UniProtKB P30968) for "Cc1c(N2CCN(Cc3ccc(C(F)(F)F)o3)CC2)c(=O)n(C[C@H](NCCCC(=O)O)c2ccccc2)c(=O)n1Cc1c(F)cccc1C(F)(F)F"
Reply: 8.54

---

Assay: Cmax in castrated cynomolgus monkey at 10 mg/kg, po by mass spectrometry
Type: ADME, organism-based, Macaca fascicularis
Set-up: dose 10 mg/kg, route oral
Conditions: male, in vivo
Readout Label: Cmax (ng/mL)
Give the value, in units of ng/mL, as a plain number.

Ask: So what's the measured Cmax for this one? "Cc1c(N2CCN(Cc3ccc(C(F)(F)F)o3)CC2)c(=O)n(C[C@H](NCCCC(=O)O)c2ccccc2)c(=O)n1Cc1c(F)cccc1C(F)(F)F.Cl"
Reply: 300

---

Would you kindly list inhibition at 0.5 h, 10 µM for each of these compounds?
Molecular target: CYP3A4 (Homo sapiens)
Sequence (P08684 whole entry): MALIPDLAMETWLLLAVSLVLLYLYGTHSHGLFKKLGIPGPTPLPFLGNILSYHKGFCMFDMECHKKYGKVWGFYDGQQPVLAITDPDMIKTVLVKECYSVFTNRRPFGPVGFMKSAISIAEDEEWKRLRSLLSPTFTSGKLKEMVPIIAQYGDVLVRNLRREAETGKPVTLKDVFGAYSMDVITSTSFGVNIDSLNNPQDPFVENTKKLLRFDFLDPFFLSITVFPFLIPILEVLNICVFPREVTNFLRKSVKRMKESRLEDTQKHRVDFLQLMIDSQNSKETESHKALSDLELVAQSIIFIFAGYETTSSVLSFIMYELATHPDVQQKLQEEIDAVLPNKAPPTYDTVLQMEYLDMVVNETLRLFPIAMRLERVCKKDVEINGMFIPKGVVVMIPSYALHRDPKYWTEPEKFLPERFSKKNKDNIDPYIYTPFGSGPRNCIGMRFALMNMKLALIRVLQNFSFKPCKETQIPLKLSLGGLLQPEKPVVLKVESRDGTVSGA
Experiment: Inhibition of human recombinant CYP3A4 expressed in baculosomes at 10 uM incubated for 30 mins using BOMR substrate by fluorescence based assay
Type: ADME
Conditions: probe BOMR
Provide the measurement as a number trailed by its unit.

Ask: Given "Cc1c(N2CCN(Cc3cccc(C(=O)NCCC(=O)O)c3)CC2)c(=O)n(C[C@H](N)c2ccccc2)c(=O)n1Cc1c(F)cccc1C(F)(F)F" , state its recorded inhibition at 0.5 h, 10 µM.
Reply: 72%

Ask: inhibition at 0.5 h, 10 µM for "Cc1c(N2CCN(Cc3cccc([N+](=O)[O-])c3)CC2)c(=O)n(C[C@H](N)c2ccccc2)c(=O)n1Cc1c(F)cccc1C(F)(F)F" ?
Reply: 89%

Ask: Request the reported inhibition at 0.5 h, 10 µM associated with "CCOP(=O)(O)CCCN[C@@H](Cn1c(=O)c(N2CCN(Cc3ccc(C(F)(F)F)o3)CC2)c(C)n(Cc2c(F)cccc2C(F)(F)F)c1=O)c1ccccc1"
Reply: 45%

---

Answer each item with its documented IC50.
Target: Gonadotropin-releasing hormone receptor (Homo sapiens)
Experiment: Antagonist activity against human GnRH receptor expressed in HEK293 cells co-transfected with pGL4-NFAT promoter AP1-luc assessed as inhibition of 20 nM GnRH-induced NFAT activation pre-incubated for 1 hr before GnRH stimulation and measured after 6 hrs by luciferase reporter gene assay
Format: cell-based
The response must be a number in nM with no trailing unit.

Ask: So what's the measured IC50 for this one? "Cc1c(N2CCN(Cc3cccc([N+](=O)[O-])c3F)CC2)c(=O)n(C[C@H](N)c2ccccc2)c(=O)n1Cc1c(F)cccc1C(F)(F)F"
Reply: 115

Ask: Reported IC50, compound "CNC(=O)c1cccc(CN2CCN(c3c(C)n(Cc4c(F)cccc4C(F)(F)F)c(=O)n(C[C@H](N)c4ccccc4)c3=O)CC2)c1" : ____
Reply: 170

Ask: Given the compound "Cc1c(N2CCN(Cc3ccc(C(F)(F)F)o3)CC2)c(=O)n(C[C@H](N)c2ccccc2)c(=O)n1Cc1c(F)cccc1C(F)(F)F" , what is its reported IC50?
Reply: 12.6

Ask: # get_value(readout='IC50', item= "Cc1c(N2CCN(Cc3cccc(-c4ncco4)c3)CC2)c(=O)n(C[C@H](N)c2ccccc2)c(=O)n1Cc1c(F)cccc1C(F)(F)F" )
Reply: 53

---

Please provide measured pIC50 for the entries that follow.
Molecular target: Gonadotropin-releasing hormone receptor (Homo sapiens, UniProt P30968)
Test: Antagonist activity against human GnRH receptor expressed in HEK293 cells co-transfected with pGL4-NFAT promoter AP1-luc assessed as inhibition of 20 nM GnRH-induced NFAT activation pre-incubated for 1 hr before GnRH stimulation and measured after 6 hrs by luciferase reporter gene assay
Format: cell-based
Please express pIC50 as -log10 of the molar concentration.

Ask: Please report the recorded pIC50 for "Cc1c(N2CCN(Cc3cccc4ccsc34)CC2)c(=O)n(C[C@H](N)c2ccccc2)c(=O)n1Cc1c(F)cccc1C(F)(F)F" .
Reply: 4.99

Ask: pIC50 lookup needed for "CC(=O)c1cccc(CN2CCN(c3c(C)n(Cc4c(F)cccc4C(F)(F)F)c(=O)n(C[C@H](N)c4ccccc4)c3=O)CC2)c1" , thanks.
Reply: 7.78

Ask: For the molecule "Cc1c(N2CCN(Cc3ccc(Cl)o3)CC2)c(=O)n(C[C@H](N)c2ccccc2)c(=O)n1Cc1c(F)cccc1C(F)(F)F" , what pIC50 is on record?
Reply: 6.75

Ask: Can you look up the measured pIC50 of "Cc1c(N2CCN(Cc3cccc(C(F)(F)F)c3)CC2)c(=O)n(C[C@H](N)c2ccccc2)c(=O)n1Cc1c(F)cccc1C(F)(F)F" for me?
Reply: 7.55

Ask: Data request, read-out pIC50, for "Cc1c(N2CCN(Cc3cccc4nonc34)CC2)c(=O)n(C[C@H](N)c2ccccc2)c(=O)n1Cc1c(F)cccc1C(F)(F)F"
Reply: 6.05

---

Target: Gonadotropin-releasing hormone receptor (Homo sapiens, UniProt P30968)
Assay: Antagonist activity against human GnRH receptor expressed in HEK293 cells co-transfected with pGL4-NFAT promoter AP1-luc assessed as inhibition of 20 nM GnRH-induced NFAT activation pre-incubated for 1 hr before GnRH stimulation and measured after 6 hrs by luciferase reporter gene assay
Assay type: cell-based
Readout Label: IC50 (nM)
Answer format: numeric, nM implied, no suffix.

Ask: Would you kindly share the measured IC50 for "Cc1c(N2CCN(Cc3cccc(S(C)(=O)=O)c3)CC2)c(=O)n(C[C@H](N)c2ccccc2)c(=O)n1Cc1c(F)cccc1C(F)(F)F" ?
Reply: 214

Ask: Please look up its IC50: "Cc1ncccc1CN1CCN(c2c(C)n(Cc3c(F)cccc3C(F)(F)F)c(=O)n(C[C@H](N)c3ccccc3)c2=O)CC1"
Reply: 543

Ask: Look up IC50: "COC(=O)c1ccc(CN2CCN(c3c(C)n(Cc4c(F)cccc4C(F)(F)F)c(=O)n(C[C@H](N)c4ccccc4)c3=O)CC2)o1"
Reply: 64

Ask: Data request, read-out IC50, for "Cc1c(N2CCN(Cc3cccc(F)c3C#N)CC2)c(=O)n(C[C@H](N)c2ccccc2)c(=O)n1Cc1c(F)cccc1C(F)(F)F"
Reply: 108

Ask: For the molecule "Cc1c(N2CCN(Cc3cccc(C(=O)NCCC(=O)O)c3)CC2)c(=O)n(C[C@H](N)c2ccccc2)c(=O)n1Cc1c(F)cccc1C(F)(F)F" , what IC50 is on record?
Reply: 146

Ask: Entry "Cc1c(N2CCN(Cc3cccc(C(F)(F)F)c3)CC2)c(=O)n(C[C@H](NCCCC(=O)O)c2ccccc2)c(=O)n1Cc1c(F)cccc1C(F)(F)F" : reported IC50 = ?
Reply: 49.5

Ask: # get_value(readout='IC50', item= "Cc1c(N2CCN(Cc3cccc(OC(F)(F)F)c3)CC2)c(=O)n(C[C@H](N)c2ccccc2)c(=O)n1Cc1c(F)cccc1C(F)(F)F" )
Reply: 250

Ask: Give the measured IC50 of "Cc1c(N2CCN(Cc3cnccn3)CC2)c(=O)n(C[C@H](N)c2ccccc2)c(=O)n1Cc1c(F)cccc1C(F)(F)F" .
Reply: 2050

Ask: Reported IC50 for "Cc1c(N2CCN(Cc3cccc(F)c3)CC2)c(=O)n(C[C@H](N)c2ccccc2)c(=O)n1Cc1c(F)cccc1C(F)(F)F" : what is it?
Reply: 321

Ask: // returns reported IC50 for input "Cc1c(N2CCN(Cc3cccc([N+](=O)[O-])c3)CC2)c(=O)n(C[C@H](NCCCC(=O)O)c2ccccc2)c(=O)n1Cc1c(F)cccc1C(F)(F)F"
Reply: 60

Ask: Any idea what IC50 was measured for "Cc1c(N2CCN(Cc3cccc([N+](=O)[O-])c3)CC2)c(=O)n(C[C@H](N)c2ccccc2OCC(=O)O)c(=O)n1Cc1c(F)cccc1C(F)(F)F" ?
Reply: 27.7

Ask: For the molecule "Cc1c(N2CCN(Cc3nc4ccccc4s3)CC2)c(=O)n(C[C@H](N)c2ccccc2)c(=O)n1Cc1c(F)cccc1C(F)(F)F" , what IC50 is on record?
Reply: 4900

Ask: Item "Cc1c(N2CCN(Cc3cccnc3F)CC2)c(=O)n(C[C@H](N)c2ccccc2)c(=O)n1Cc1c(F)cccc1C(F)(F)F" has what recorded IC50?
Reply: 193

Ask: Report IC50 for "Cc1c(N2CCN(Cc3cccc(F)c3F)CC2)c(=O)n(C[C@H](N)c2ccccc2)c(=O)n1Cc1c(F)cccc1C(F)(F)F" please.
Reply: 266

Ask: Give its IC50 value. Item: "Cc1c(N2CCN(Cc3cccc([N+](=O)[O-])c3)CC2)c(=O)n(C[C@H](N)c2ccccc2O)c(=O)n1Cc1c(F)cccc1C(F)(F)F"
Reply: 89.3

Ask: What does the data say about its IC50? Entry: "Cc1c(N2CCN(Cc3cccc(C#N)c3F)CC2)c(=O)n(C[C@H](N)c2ccccc2)c(=O)n1Cc1c(F)cccc1C(F)(F)F"
Reply: 61

Ask: Find the recorded IC50 belonging to "Cc1c(N2CCN(Cc3ccc(C(F)(F)F)s3)CC2)c(=O)n(C[C@H](N)c2ccccc2)c(=O)n1Cc1c(F)cccc1C(F)(F)F" and report it.
Reply: 62

Ask: What value of measured IC50 is listed for "Cc1c(N2CCN(Cc3cccc([N+](=O)[O-])c3)CC2)c(=O)n(C[C@H](N)c2ccccc2OCCCC(=O)O)c(=O)n1Cc1c(F)cccc1C(F)(F)F" ?
Reply: 26.9

Ask: Looking for the measured IC50 of "Cc1c(N2CCN(Cc3cccnc3Cl)CC2)c(=O)n(C[C@H](N)c2ccccc2)c(=O)n1Cc1c(F)cccc1C(F)(F)F" , can you help?
Reply: 526
